Can you tell me EC50 for the items I'm about to list?
# SYSTEM NAME: human sphingosine-1-phosphate receptor 1 (S1P1) (Homo sapiens)
# RUN DESCRIPTION: Inhibition of cAMP production (HTRF cAMP HiRange), S1P1 CHO-K1 cells
# Assay type: cell-based
# TEST SETTINGS: inhibition of cAMP production; potency; read-out: hS1P1 CAMP pEC50 (converted)
# Sequence (P21453 whole entry): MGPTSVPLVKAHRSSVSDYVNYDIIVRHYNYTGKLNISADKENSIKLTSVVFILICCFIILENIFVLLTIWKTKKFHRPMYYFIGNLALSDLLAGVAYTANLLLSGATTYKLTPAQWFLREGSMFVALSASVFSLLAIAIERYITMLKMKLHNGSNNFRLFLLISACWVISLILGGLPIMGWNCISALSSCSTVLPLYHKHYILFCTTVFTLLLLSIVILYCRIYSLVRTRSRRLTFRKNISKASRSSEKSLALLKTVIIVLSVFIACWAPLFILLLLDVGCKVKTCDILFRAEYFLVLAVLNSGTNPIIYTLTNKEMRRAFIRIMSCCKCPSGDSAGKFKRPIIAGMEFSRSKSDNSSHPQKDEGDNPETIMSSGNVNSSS

# EC50 (compound: `CC(C)n1nnc2cc(-c3nc(-c4cncnc4)no3)ccc21` ) is > 316 nM

# EC50 (compound: `CCC1(CC)CC(=O)c2cc(-c3nc(-c4ccc(C(=O)NC)cc4)no3)ccc2O1` ) is < 316 nM

# EC50 (compound: `Cc1ccccc1-c1noc(-c2ccc3c(c2)nnn3C2CCOCC2)n1` ) is > 316 nM

# EC50 (compound: `CC(C)n1nnc2cc(-c3nc(-c4cccc5c4OCO5)no3)ccc21` ) is < 316 nM

# EC50 (compound: `Cc1cc(C)cc(-c2noc(-c3ccc4c(c3)nnn4C(C)C)n2)c1` ) is > 316 nM

# EC50 (compound: `COc1ccc(-c2noc(-c3ccc4c(c3)nnn4C3CCCCC3)n2)cc1C(F)(F)F` ) is > 316 nM

# EC50 (compound: `Cc1ccsc1-c1noc(-c2ccc3c(c2)nnn3CC(C)(C)O)n1` ) is < 316 nM

# EC50 (compound: `CC(C)CCn1nnc2cc(-c3nc(-c4ccc(C(F)(F)F)c(F)c4)no3)ccc21` ) is > 316 nM

# EC50 (compound: `CCC1(CC)CC(=O)c2cc(-c3nc(-c4ccncc4)no3)ccc2O1` ) is > 316 nM

# EC50 (compound: `Cc1cc(-c2nc(-c3ccc4c(c3)nnn4C(C)C)no2)ccn1` ) is > 316 nM

# EC50 (compound: `C=CCNc1ccc(-c2nc(-c3ccc4[nH]ncc4c3)no2)cc1C#N` ) is < 316 nM

# EC50 (compound: `Cc1ccc(-c2nc(-c3ccc4c(c3)nnn4C(C)C)no2)c(C)c1` ) is > 316 nM

# EC50 (compound: `Cc1ccccc1-c1noc(-c2ccc3c(c2)nnn3CC(F)F)n1` ) is < 316 nM

# EC50 (compound: `COc1ccccc1-c1nnc(-c2ccc3c(c2)nnn3C(C)C)o1` ) is > 316 nM

# EC50 (compound: `CCCn1nnc2cc(-c3nc(-c4cccc(C(F)(F)F)c4)no3)ccc21` ) is > 316 nM

# EC50 (compound: `CC(C)n1nnc2cc(-c3nc(-c4ccccn4)no3)ccc21` ) is > 316 nM

# EC50 (compound: `CC(C)n1ncc2cc(-c3nc(-c4ccccc4Br)no3)ccc21` ) is < 316 nM

# EC50 (compound: `Cc1ccccc1-c1noc(-c2ccc3c(c2)nnn3CC(C)(C)O)n1` ) is < 316 nM

# EC50 (compound: `CC(C)n1nnc2cc(-c3noc(C4CCC(F)(F)CC4)n3)ccc21` ) is > 316 nM

# EC50 (compound: `CC(C)n1ncc2cc(-c3nc(-c4ccccc4OC(F)(F)F)no3)ccc21` ) is < 316 nM

# EC50 (compound: `CC(C)Oc1ccccc1-c1noc(-c2ccc3c(ccn3C(C)C)c2)n1` ) is > 316 nM

# EC50 (compound: `CCC1(CC)CC(=O)c2cc(-c3nc(-c4ccncc4C(F)(F)F)no3)ccc2O1` ) is < 316 nM

# EC50 (compound: `COc1ccc(-c2noc(-c3ccc4c(c3)nnn4CC(C)(C)O)n2)c(C)c1` ) is < 316 nM

# EC50 (compound: `C=CCNc1ccc(-c2nc(-c3ccc4[nH]c(=O)oc4c3)no2)cc1C#N` ) is < 316 nM

# EC50 (compound: `COc1ccc(-c2noc(-c3ccc4c(c3)nnn4C(C)C)n2)cc1OC` ) is > 316 nM

# EC50 (compound: `CCC1(CC)CC(=O)c2cc(-c3nc(-c4cnccc4OC)no3)ccc2O1` ) is > 316 nM

# EC50 (compound: `CCC1(CC)CC(=O)c2cc(-c3nc(-c4cccc(Cl)c4)no3)ccc2O1` ) is > 316 nM

# EC50 (compound: `CCC1(CC)CC(=O)c2cc(-c3nsc(-c4ccccc4OC)n3)ccc2O1` ) is > 316 nM

# EC50 (compound: `CC(C)n1nnc2cc(-c3noc(-c4ccccc4C(F)(F)F)n3)ccc21` ) is < 316 nM

# EC50 (compound: `CC(C)Nc1ccc(-c2nc(-c3ccc4c(c3)CCC(=O)N4)no2)cc1C#N` ) is < 316 nM

# EC50 (compound: `CCCC1(CCC)CC(=O)c2cc(-c3nc(-c4cccnc4)no3)ccc2O1` ) is > 316 nM

====

# SYSTEM NAME: human sphingosine-1-phosphate receptor 1 (S1P1) (Homo sapiens)
# RUN DESCRIPTION: β-Arrestin2 recruitment assay (PathHunter), S1P1 CHO-K1 cells
# Assay type: cell-based
# TEST SETTINGS: β-arrestin2 recruitment, S1P1; read-out: hS1P1 B-arrestin2 pEC50 (converted)
# Sequence (P21453 whole entry): as above
# Sequence (P32121 whole entry partner): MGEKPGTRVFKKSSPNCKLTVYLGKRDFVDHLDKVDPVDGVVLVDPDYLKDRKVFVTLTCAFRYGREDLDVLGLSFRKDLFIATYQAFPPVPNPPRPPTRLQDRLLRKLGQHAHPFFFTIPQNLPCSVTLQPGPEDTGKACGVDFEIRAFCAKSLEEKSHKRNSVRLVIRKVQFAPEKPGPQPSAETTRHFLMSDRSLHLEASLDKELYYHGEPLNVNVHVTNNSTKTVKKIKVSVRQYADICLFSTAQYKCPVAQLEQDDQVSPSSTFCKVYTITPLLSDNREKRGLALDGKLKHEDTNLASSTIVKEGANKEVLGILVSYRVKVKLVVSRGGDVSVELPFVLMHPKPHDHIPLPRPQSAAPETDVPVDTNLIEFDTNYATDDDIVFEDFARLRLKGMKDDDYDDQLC
MEASURED ATTRIBUTE: EC50

Entry CCC1(CC)CC(=O)c2cc(-c3nc(-c4sccc4OC)no3)ccc2O1 [Compound 604] , human sphingosine-1-phosphate receptor 1 (S1P1) (Homo sapiens) data, EC50 value: < 10 µM

Entry Cc1cccc2oc(-c3ccc4c(c3)nnn4CC(C)C)nc12 [Compound 447] , human sphingosine-1-phosphate receptor 1 (S1P1) (Homo sapiens) data, EC50 value: < 10 µM

Entry CCC1(CC)CC(=O)c2cc(-c3noc(-c4ccc(NCC5CC5)c(C#N)c4)n3)ccc2O1 [Compound 444] , human sphingosine-1-phosphate receptor 1 (S1P1) (Homo sapiens) data, EC50 value: < 10 µM

Entry CCC1(CC)CC(=O)c2cc(-c3nc(-c4cccnc4C(F)(F)F)no3)ccc2O1 [Compound 562] , human sphingosine-1-phosphate receptor 1 (S1P1) (Homo sapiens) data, EC50 value: < 10 µM

Entry CC(C)Nc1ccc(-c2nnc(-c3ccc4oc(=O)[nH]c4c3)o2)cc1C#N [Compound 637] , human sphingosine-1-phosphate receptor 1 (S1P1) (Homo sapiens) data, EC50 value: < 10 µM

Entry CC(C)(CO)Cn1nnc2cc(-c3noc(-c4cnccc4C(F)(F)F)n3)ccc21 [Compound 529] , human sphingosine-1-phosphate receptor 1 (S1P1) (Homo sapiens) data, EC50 value: < 10 µM

Entry COc1cccc(-c2nc(-c3ccc4c(ccn4C(C)C)c3)no2)c1 [Compound 392] , human sphingosine-1-phosphate receptor 1 (S1P1) (Homo sapiens) data, EC50 value: > 10 µM

Entry CC(C)n1ccc2cc(-c3nc(-c4ccccc4F)cs3)cnc21 [Compound 402] , human sphingosine-1-phosphate receptor 1 (S1P1) (Homo sapiens) data, EC50 value: > 10 µM

====

# SYSTEM NAME: human sphingosine-1-phosphate receptor 1 (S1P1) (Homo sapiens)
# RUN DESCRIPTION: β-Arrestin2 recruitment assay (PathHunter), S1P1 CHO-K1 cells
# Assay type: cell-based
# TEST SETTINGS: β-arrestin2 recruitment, S1P1; read-out: hS1P1 B-arrestin2 pEC50 (converted)
MEASURED ATTRIBUTE: EC50

# EC50 (compound: Cn1cnc2cc(-c3nnc(-c4ccc(NCC(F)F)c(C#N)c4)o3)ccc21 [Compound 573] ) is > 10 µM

# EC50 (compound: CCc1ccccc1-c1nc(-c2ccc3c(c2)nnn3CC(C)(C)CO)no1 [Compound 527] ) is > 10 µM

# EC50 (compound: COc1ccccc1-c1csc(-c2ccc3c(ccn3C(C)C)n2)n1 [Compound 411] ) is > 10 µM

# EC50 (compound: CCC1(CC)CC(=O)c2cc(-c3nc(-c4ccc(NC(C)=O)cc4OC)no3)ccc2O1 [Compound 531] ) is < 10 µM

# EC50 (compound: CC(C)n1ccc2cc(-c3noc(-c4cccc(F)c4)n3)ccc21 [Compound 394] ) is < 10 µM

# EC50 (compound: CCC1(CC)CC(=O)c2cc(-c3ncc(-c4ccnc(O)c4)cn3)ccc2O1 [Compound 552] ) is > 10 µM

# EC50 (compound: CCC1(CC)CC(=O)c2cc(-c3nc(-c4cncc(NC(C)=O)c4)no3)ccc2O1 [Compound 538] ) is < 10 µM

# EC50 (compound: CCC1(CC)CC(=O)c2cc(-c3nc(-c4ccnc(NC(C)=O)c4)no3)ccc2O1 [Compound 512] ) is < 10 µM

====

Can you tell me Emax for the items I'm about to list?
# SYSTEM NAME: human sphingosine-1-phosphate receptor 1 (S1P1) (Homo sapiens)
# RUN DESCRIPTION: β-Arrestin2 recruitment assay (PathHunter), S1P1 CHO-K1 cells
# Format: cell-based
# TEST SETTINGS: CHO-K1; efficacy normalized to maximum efficacy of fingolimod; read-out: hS1P1 B-arrestin2 SPAN

# Emax (molecule: `N#Cc1cc(-c2nnc(-c3ccc4c(c3)CCC(=O)N4)o2)ccc1NCC(F)F` ) is < 75%

# Emax (molecule: `N#Cc1cc(-c2nnc(-c3ccc4c(c3)ncn4CCO)o2)ccc1NCC(F)F` ) is < 75%

# Emax (molecule: `CC(C)n1ccc2cc(-c3nc(-c4ccccc4C(F)(F)F)cs3)cnc21` ) is < 75%

# Emax (molecule: `CCC1(CC)CC(=O)c2cc(-c3ncc(-c4ccccn4)cn3)ccc2O1` ) is > 75%

# Emax (molecule: `CC1(C)Oc2ccc(-c3nc(-c4cccnc4)no3)cc2C1=O` ) is < 75%

# Emax (molecule: `N#Cc1cc(-c2nc(-c3ccc4oc(=O)[nH]c4c3)no2)ccc1NCC1CC1` ) is > 75%

# Emax (molecule: `CCC1(CC)CC(=O)c2cc(-c3nc(-c4cccnn4)no3)ccc2O1` ) is > 75%

# Emax (molecule: `COc1cccc(-c2csc(-c3ccc4c(ccn4C(C)C)n3)n2)c1` ) is < 75%

# Emax (molecule: `COc1ccccc1-c1c[nH]c(-c2ccc3c(c2)nnn3C(C)C)c1` ) is < 75%

# Emax (molecule: `CC(C)n1ccc2cc(-c3nc(-c4ccccc4F)cs3)cnc21` ) is < 75%

# Emax (molecule: `CC(C)Nc1ccc(-c2nnc(-c3ccc4c(c3)ncn4CCO)o2)cc1C#N` ) is > 75%

# Emax (molecule: `CN1C(=O)CCc2cc(-c3nc(-c4cccnc4)no3)ccc21` ) is < 75%

# Emax (molecule: `CCC1(CC)CC(=O)c2cc(-c3nc(-c4ccc5ncoc5c4)no3)ccc2O1` ) is < 75%

# Emax (molecule: `CCC1(CC)CC(=O)c2cc(-c3noc(-c4cccnc4)n3)ccc2O1` ) is > 75%

# Emax (molecule: `CC(C)n1nnc2cc(-c3noc(-c4ncccc4O)n3)ccc21` ) is > 75%

# Emax (molecule: `CCC1(CC)CC(=O)c2cc(-c3nc(-c4ccc(C)nc4)no3)ccc2O1` ) is < 75%

# Emax (molecule: `CCC1(CC)CC(=O)c2cc(-c3nc(-c4cc[nH]c4)no3)ccc2O1` ) is > 75%

# Emax (molecule: `CC(C)Nc1ccc(-c2nc(-c3ccc4c(c3)CCNC4=O)no2)cc1C#N` ) is > 75%
